Molecular target: T1, IL-4Rα (receptor protein / antigen) (UniProt P24394 26-232, limits assumed)
T1 construct: also called IL-4 receptor subunit α
Test: BLI (Octet 96), antibody loaded on sensor, antigen in solution
valueKind: kon (M⁻¹ s⁻¹)

Example entries and their recorded answers appear below.
binder="humanized anti-IL-4Rα single domain antibody 4E9-V10 (VHH) VHH: QVQLVESGGGLVQPGGSLRLSCAASGDFYCMAWFRQAPGKEREAVAAIRSGGRSTYYADSVKGRFTISRDNSKNTLYLQMNSLKAEDTAVYYCAVGVDGNCRNYWGQGTLVTVSS" outputunit="M⁻¹ s⁻¹" testresult=173000
binder="humanized anti-IL-4Rα single domain antibody 4E9-V6 (VHH) VHH: QVQLVESGGGLVQPGGSLRLSCAASGDFYCMAWFRQAPGKEREAVATIRSGGRSTYYADSVKGRFTISRDNSKNTLYLQMNSLKAEDTAVYYCAVGVDGNCRNYWGQGTLVTVSS" outputunit="M⁻¹ s⁻¹" testresult=166000

(A) humanized anti-IL-4Rα single domain antibody 4E9-V13 (VHH) VHH: QVQLVESGGGLVQPGGSLRLSCAASGDFYCMAWFRQAPGKEREAVATIRSGGRSTYYADSVKGRFTISRDNSKNTVYLQMNSLKAEDTAVYYCAVGVDGNCRNYWGQGTLVTVSS
(B) humanized anti-IL-4Rα single domain antibody 4E9-V12 (VHH) VHH: QVQLVESGGGLVQPGGSLRLSCAASGDFYCMAWFRQAPGKEREAVATIRSGGRSTYLADSVKGRFTISRDNSKNTLYLQMNSLKAEDTAVYYCAVGVDGNCRNYWGQGTLVTVSS
For the pair A and B , which member has the lower kon number? # reply format: chosen label
B
(B: 28800 M⁻¹ s⁻¹, A: 166000 M⁻¹ s⁻¹)
